target: Integrin alpha-IIb/beta-3 (Homo sapiens, UniProt P05106+P08514); test: Inhibition of FITC-labeled fibrinogen binding to integrin alpha2bbeta3 closed form in human washed platelets
Sequence (P05106 27-788 limits assumed): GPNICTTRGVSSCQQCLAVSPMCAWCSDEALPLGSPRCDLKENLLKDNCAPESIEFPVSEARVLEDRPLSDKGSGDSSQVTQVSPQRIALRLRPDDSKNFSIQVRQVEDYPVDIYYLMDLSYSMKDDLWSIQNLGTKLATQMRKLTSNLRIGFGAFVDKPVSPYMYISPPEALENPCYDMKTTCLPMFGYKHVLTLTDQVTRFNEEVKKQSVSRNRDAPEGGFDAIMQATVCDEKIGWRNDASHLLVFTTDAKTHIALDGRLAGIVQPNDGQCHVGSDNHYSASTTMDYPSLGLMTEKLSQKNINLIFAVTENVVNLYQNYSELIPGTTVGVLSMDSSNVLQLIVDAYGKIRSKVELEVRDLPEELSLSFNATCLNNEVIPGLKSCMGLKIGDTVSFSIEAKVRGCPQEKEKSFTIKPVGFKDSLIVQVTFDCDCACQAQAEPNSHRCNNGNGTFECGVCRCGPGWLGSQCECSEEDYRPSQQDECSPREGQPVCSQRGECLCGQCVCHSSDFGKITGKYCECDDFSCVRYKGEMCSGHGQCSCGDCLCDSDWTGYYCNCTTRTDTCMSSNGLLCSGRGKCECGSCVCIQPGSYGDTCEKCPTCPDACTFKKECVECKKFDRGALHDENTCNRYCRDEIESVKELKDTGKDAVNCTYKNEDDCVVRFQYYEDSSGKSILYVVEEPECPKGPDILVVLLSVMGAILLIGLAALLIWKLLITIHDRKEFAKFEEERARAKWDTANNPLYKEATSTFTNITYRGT
Sequence (P08514 32-887 limits assumed): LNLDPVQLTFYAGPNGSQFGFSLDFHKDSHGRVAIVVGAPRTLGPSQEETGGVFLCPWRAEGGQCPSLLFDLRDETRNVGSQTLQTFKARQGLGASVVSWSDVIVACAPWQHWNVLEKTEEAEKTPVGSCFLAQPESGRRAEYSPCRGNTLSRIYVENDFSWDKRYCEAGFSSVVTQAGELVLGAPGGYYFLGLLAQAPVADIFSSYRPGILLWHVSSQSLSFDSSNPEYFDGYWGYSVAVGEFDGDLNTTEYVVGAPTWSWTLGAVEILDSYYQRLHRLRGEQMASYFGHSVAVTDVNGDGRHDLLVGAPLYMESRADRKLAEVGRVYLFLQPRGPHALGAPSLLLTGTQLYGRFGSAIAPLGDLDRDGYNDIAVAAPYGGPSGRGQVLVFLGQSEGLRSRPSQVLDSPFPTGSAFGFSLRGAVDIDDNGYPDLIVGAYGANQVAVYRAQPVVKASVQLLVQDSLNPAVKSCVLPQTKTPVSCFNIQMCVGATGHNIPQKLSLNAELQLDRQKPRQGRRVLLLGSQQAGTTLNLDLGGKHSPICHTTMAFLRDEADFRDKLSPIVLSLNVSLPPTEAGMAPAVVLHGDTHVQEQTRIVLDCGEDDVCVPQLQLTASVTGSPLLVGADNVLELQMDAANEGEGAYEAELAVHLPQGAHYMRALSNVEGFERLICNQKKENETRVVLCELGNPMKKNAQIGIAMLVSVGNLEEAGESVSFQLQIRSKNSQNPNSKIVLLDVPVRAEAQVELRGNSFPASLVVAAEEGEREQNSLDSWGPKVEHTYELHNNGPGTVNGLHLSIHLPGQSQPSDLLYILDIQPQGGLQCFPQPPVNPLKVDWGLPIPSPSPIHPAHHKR
Sequence (P08514 891-1039 limits assumed): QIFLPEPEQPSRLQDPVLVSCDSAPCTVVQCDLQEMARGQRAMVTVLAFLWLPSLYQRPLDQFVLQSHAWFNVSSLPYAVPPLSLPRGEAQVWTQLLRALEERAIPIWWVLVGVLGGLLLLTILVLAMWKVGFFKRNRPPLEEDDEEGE
experimental.endpoint: pIC50
Hey, just a heads up that pIC50 is the negative log base 10 of the concentration in molar.

>>> endpoint_value("NCCC(=O)Nc1ccc2nc(N3CCNCC3)[nH]c(=O)c2c1")
8.30
>>> endpoint_value("O=C(Nc1ccc2nc(N3CCNCC3)[nH]c(=O)c2c1)C1CCNCC1")
8.42

// below: pIC50 requested for another compound
For this compound ( `NCCCC(=O)Nc1ccc2nc(N3CCNCC3)[nH]c(=O)c2c1` ), measured pIC50 is 8.66

The measurements presented in this section are drawn from ChEMBL document CHEMBL3621072.
